Test system: NCI-H1792
Experiment: relative viability (nuclei count vs DMSO), 5 days (fraction); higher = more cells survive
Details: first compound 0.6325 µM
# relative viability annotations
In your answer, state the number alone without any accompanying words.

Known relative viability results, listed for orientation:
* Cc1csc(=NC2CCCCC2)n1/N=C/c1ccc(O)c(O)c1O [MIM1] + CCNC(=O)c1noc(-c2cc(C(C)C)c(O)cc2O)c1-c1ccc(CN2CCOCC2)cc1 [Luminespib] (partner 0.01 µM) | 0.43
* Cc1csc(=NC2CCCCC2)n1/N=C/c1ccc(O)c(O)c1O [MIM1] + NC(=O)Nc1cc(-c2cccc(F)c2)sc1C(=O)N[C@H]1CCCNC1 [AZD7762] (partner 0.2 µM) | 0.565
* CN1CCN(CCOc2cc(OC3CCOCC3)c3c(Nc4c(Cl)ccc5c4OCO5)ncnc3c2)CC1 [Saracatinib] + Cc1nc(Nc2ncc(C(=O)Nc3c(C)cccc3Cl)s2)cc(N2CCN(CCO)CC2)n1 [Dasatinib] (partner 0.075 µM) | 0.894
* CN1CCN(CCOc2cc(OC3CCOCC3)c3c(Nc4c(Cl)ccc5c4OCO5)ncnc3c2)CC1 [Saracatinib] + NC(=O)Nc1cc(-c2cccc(F)c2)sc1C(=O)N[C@H]1CCCNC1 [AZD7762] (partner 0.2 µM) | 0.831
* Cc1csc(=NC2CCCCC2)n1/N=C/c1ccc(O)c(O)c1O [MIM1] + Nc1ncn([C@H]2C[C@H](O)[C@@H](CO)O2)c(=O)n1 [Decitabine] (partner 2 µM) | 0.497

Next:
For the compound Cc1csc(=NC2CCCCC2)n1/N=C/c1ccc(O)c(O)c1O [MIM1] + C[C@@H](Oc1cc(-c2cnn(C3CCNCC3)c2)cnc1N)c1c(Cl)ccc(F)c1Cl [Crizotinib] (partner 1 µM) , what relative viability is on record?
0.897

* * *

Tested on: SK-MES-1
Assay: relative viability (nuclei count vs DMSO), 5 days (fraction); higher = more cells survive
Settings: first compound 2.53 µM
Recorded relative viability for the following compounds

* Nc1cccc2c1CN(C1CCC(=O)NC1=O)C2=O (stereo unspecified) [Lenalidomide] + Nc1nc2[nH]cc(CCc3ccc(C(=O)N[C@@H](CCC(=O)O)C(=O)O)cc3)c2c(=O)[nH]1 [Pemetrexed] (partner 0.2 µM) | 0.934

Looking for the measured relative viability of Nc1cccc2c1CN(C1CCC(=O)NC1=O)C2=O (stereo unspecified) [Lenalidomide] + CS(=O)(=O)N1CCN(Cc2cc3nc(-c4cccc5[nH]ncc45)nc(N4CCOCC4)c3s2)CC1 [Pictilisib] (partner 1 µM) , can you help?
0.403

Queued: Nc1cccc2c1CN(C1CCC(=O)NC1=O)C2=O (stereo unspecified) [Lenalidomide] + N=C(N)NC(=N)NCCc1ccccc1 [Phenformin] (partner 250 µM)
0.678

Lookup Nc1cccc2c1CN(C1CCC(=O)NC1=O)C2=O (stereo unspecified) [Lenalidomide] + O=C(c1cc(Cc2n[nH]c(=O)c3ccccc23)ccc1F)N1CCN(C(=O)C2CC2)CC1 [Olaparib] (partner 8 µM)
0.715

Try Nc1cccc2c1CN(C1CCC(=O)NC1=O)C2=O (stereo unspecified) [Lenalidomide] + O=C(CCCCCCC(=O)Nc1ccccc1)NO [Vorinostat] (partner 1 µM) next.
1.19

Proceed to Nc1cccc2c1CN(C1CCC(=O)NC1=O)C2=O (stereo unspecified) [Lenalidomide] + Cc1nc(Nc2ncc(C(=O)Nc3c(C)cccc3Cl)s2)cc(N2CCN(CCO)CC2)n1 [Dasatinib] (partner 0.075 µM)
0.499

* * *

Tested on: NCI-H1993
Assay: relative viability (nuclei count vs DMSO), 5 days (fraction); higher = more cells survive
Details: first compound 0.253 µM
Below, each entry is listed alongside its reported relative viability.

As a guide, the following entries are already answered.
* Nc1cccc2c1CN(C1CCC(=O)NC1=O)C2=O (centres undefined) [Lenalidomide] + CC(C)C[C@H](NC(=O)[C@H](Cc1ccccc1)NC(=O)c1cnccn1)B(O)O [Bortezomib] (partner 0.002 µM) | 1.07
* Nc1cccc2c1CN(C1CCC(=O)NC1=O)C2=O (centres undefined) [Lenalidomide] + CS(=O)(=O)CCNCc1ccc(-c2ccc3ncnc(Nc4ccc(OCc5cccc(F)c5)c(Cl)c4)c3c2)o1 [Lapatinib] (partner 2 µM) | 0.894

Fill blank: measured relative viability of the molecule Nc1cccc2c1CN(C1CCC(=O)NC1=O)C2=O (centres undefined) [Lenalidomide] + CCNC(=O)c1noc(-c2cc(C(C)C)c(O)cc2O)c1-c1ccc(CN2CCOCC2)cc1 [Luminespib] (partner 0.01 µM) is ____.
0.66

Thanks! And Nc1cccc2c1CN(C1CCC(=O)NC1=O)C2=O (centres undefined) [Lenalidomide] + Cc1nc(NC(=O)N2CCC[C@H]2C(N)=O)sc1-c1ccnc(C(C)(C)C(F)(F)F)c1 [Alpelisib] (partner 2 µM) ?
0.744

Repeat with Nc1cccc2c1CN(C1CCC(=O)NC1=O)C2=O (centres undefined) [Lenalidomide] + N=C(N)NC(=N)NCCc1ccccc1 [Phenformin] (partner 250 µM)
0.429

Next: Nc1cccc2c1CN(C1CCC(=O)NC1=O)C2=O (centres undefined) [Lenalidomide] + C[C@]1(O)C[C@@H](c2nc(-c3ccc4ccc(-c5ccccc5)nc4c3)c3c(N)nccn32)C1 [Linsitinib] (partner 1 µM)
0.708

Quick one: Nc1cccc2c1CN(C1CCC(=O)NC1=O)C2=O (centres undefined) [Lenalidomide] + O=C(c1cc(Cc2n[nH]c(=O)c3ccccc23)ccc1F)N1CCN(C(=O)C2CC2)CC1 [Olaparib] (partner 8 µM)
0.897

Another molecule: Nc1cccc2c1CN(C1CCC(=O)NC1=O)C2=O (centres undefined) [Lenalidomide] + CS(=O)(=O)N1CCN(Cc2cc3nc(-c4cccc5[nH]ncc45)nc(N4CCOCC4)c3s2)CC1 [Pictilisib] (partner 1 µM)
0.824

Now try Nc1cccc2c1CN(C1CCC(=O)NC1=O)C2=O (centres undefined) [Lenalidomide] + Nc1nc2[nH]cc(CCc3ccc(C(=O)N[C@@H](CCC(=O)O)C(=O)O)cc3)c2c(=O)[nH]1 [Pemetrexed] (partner 0.2 µM) .
0.554

* * *

Examples of compounds with documented relative viability follow.
System: NCI-H1734
Assay: relative viability (nuclei count vs DMSO), 5 days (fraction); higher = more cells survive
Settings: first compound 6.325 µM

Examples with answers:
- Cc1csc(=NC2CCCCC2)n1/N=C/c1ccc(O)c(O)c1O [MIM1] + CC(=O)c1c(C)c2cnc(Nc3ccc(N4CCNCC4)cn3)nc2n(C2CCCC2)c1=O [Palbociclib] (partner 0.5 µM): 0.322
- Cc1csc(=NC2CCCCC2)n1/N=C/c1ccc(O)c(O)c1O [MIM1] + CC1(C)CCC(c2ccc(Cl)cc2)=C(CN2CCN(c3ccc(C(=O)NS(=O)(=O)c4ccc(N[C@H](CCN5CCOCC5)CSc5ccccc5)c(S(=O)(=O)C(F)(F)F)c4)cc3)CC2)C1 [Navitoclax] (partner 0.5 µM): 0.467
- Cc1csc(=NC2CCCCC2)n1/N=C/c1ccc(O)c(O)c1O [MIM1] + COc1cc2c(Oc3ccc(NC(=O)C4(C(=O)Nc5ccc(F)cc5)CC4)cc3F)ccnc2cc1OCCCN1CCOCC1 [Foretinib] (partner 0.25 µM): 0.478
- Cc1csc(=NC2CCCCC2)n1/N=C/c1ccc(O)c(O)c1O [MIM1] + Cc1nc(NC(=O)N2CCC[C@H]2C(N)=O)sc1-c1ccnc(C(C)(C)C(F)(F)F)c1 [Alpelisib] (partner 2 µM): 0.655

Using the record for Cc1csc(=NC2CCCCC2)n1/N=C/c1ccc(O)c(O)c1O [MIM1] + O=C(CCCCCCC(=O)Nc1ccccc1)NO [Vorinostat] (partner 1 µM) , report its relative viability.
0.442

* * *

System: NCI-H1793
Assay: relative viability (nuclei count vs DMSO), 5 days (fraction); higher = more cells survive
Details: first compound 0.2 µM
Reported relative viability values for the following compounds.
Just the number, please.

* CCNC(=O)c1noc(-c2cc(C(C)C)c(O)cc2O)c1-c1ccc(CN2CCOCC2)cc1 [Luminespib] + CC1(C)CCC(c2ccc(Cl)cc2)=C(CN2CCN(c3ccc(C(=O)NS(=O)(=O)c4ccc(N[C@H](CCN5CCOCC5)CSc5ccccc5)c(S(=O)(=O)C(F)(F)F)c4)cc3)CC2)C1 [Navitoclax] (partner 0.5 µM) | 0.122

Now consider a different compound.
Tell me the measured relative viability of CCNC(=O)c1noc(-c2cc(C(C)C)c(O)cc2O)c1-c1ccc(CN2CCOCC2)cc1 [Luminespib] + CC(=O)Nc1cccc(-n2c(=O)n(C3CC3)c(=O)c3c(Nc4ccc(I)cc4F)n(C)c(=O)c(C)c32)c1 [Trametinib] (partner 0.02 µM) , please.
0.186

* * *

Tested on: EBC-1
Assay: relative viability (nuclei count vs DMSO), 5 days (fraction); higher = more cells survive
Settings: first compound 0.03162 µM
List of relative viability values.
Would you mind answering with just the numeric figure?

Some compounds with recorded relative viability:
- Cc1cn(-c2cc(NC(=O)c3ccc(C)c(Nc4nccc(-c5cccnc5)n4)c3)cc(C(F)(F)F)c2)cn1 [Nilotinib] + CC(C)C[C@H](NC(=O)[C@H](Cc1ccccc1)NC(=O)c1cnccn1)B(O)O [Bortezomib] (partner 0.002 µM): 0.437
- Cc1cn(-c2cc(NC(=O)c3ccc(C)c(Nc4nccc(-c5cccnc5)n4)c3)cc(C(F)(F)F)c2)cn1 [Nilotinib] + CS(=O)(=O)N1CCN(Cc2cc3nc(-c4cccc5[nH]ncc45)nc(N4CCOCC4)c3s2)CC1 [Pictilisib] (partner 1 µM): 0.289
- Cc1cn(-c2cc(NC(=O)c3ccc(C)c(Nc4nccc(-c5cccnc5)n4)c3)cc(C(F)(F)F)c2)cn1 [Nilotinib] + C[C@]1(O)C[C@@H](c2nc(-c3ccc4ccc(-c5ccccc5)nc4c3)c3c(N)nccn32)C1 [Linsitinib] (partner 1 µM): 0.791

// returns reported relative viability for input Cc1cn(-c2cc(NC(=O)c3ccc(C)c(Nc4nccc(-c5cccnc5)n4)c3)cc(C(F)(F)F)c2)cn1 [Nilotinib] + O=C(c1cc(Cc2n[nH]c(=O)c3ccccc23)ccc1F)N1CCN(C(=O)C2CC2)CC1 [Olaparib] (partner 8 µM)
0.661

Values were extracted from the supplement of paper PMC10307832.
